percent of control (FP) by entry:
# experimental-system: Guanine nucleotide-binding protein G(i) subunit alpha-3 (Rattus norvegicus)
# experiment: inhibitors of GIV peptide binding to Galpha-i3, primary screen, biochemical, fluorescence polarization, FITC-GIV GBA peptide, rat Galphai3 (AID 1224905);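 further: lower values mean more displacement of the GIV peptide from Galpha-i3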
# experimental-context: 90 min, hits give low values, scaled: aluminum fluoride 0%, vehicle 100%
Screen size: about 210,000 compounds; about 880 (0.42%) were called active. The list comes from a sample in which actives are over-represented; it also holds close analogues and randomly drawn compounds.
measured-property: percent of control (FP) (%)

molecule="COC(=O)C1C(=O)NC(SCC(=O)Nc2ccccc2C)=C(C#N)C1c1ccc(Cl)cc1Cl (stereo not given)" recorded_value=104
molecule=COC(=O)/C=C1\Nc2ccccc2SC1=O recorded_value=103
molecule=Cc1ccc(S(=O)(=O)N2CSC[C@@H]2C(=O)NCc2csc(C)n2)cc1 recorded_value=105
molecule="CCC(C)OC(=O)C1=C(C)NC2=C(C(=O)CC(c3ccc(OC)cc3)C2)C1c1cc2c(cc1[N+](=O)[O-])OCO2 (stereo not given)" recorded_value=103
molecule="Cc1sc(NC(=O)c2ccccc2)c(C(Nc2ccccn2)c2cccnc2)c1C (stereo not given)" recorded_value=102

* * *

percent of control (FP) by entry:
# experimental-system: Guanine nucleotide-binding protein G(i) subunit alpha-3 (Rattus norvegicus) (UniProt P08753)
# Sequence (P08753 whole entry, looked up): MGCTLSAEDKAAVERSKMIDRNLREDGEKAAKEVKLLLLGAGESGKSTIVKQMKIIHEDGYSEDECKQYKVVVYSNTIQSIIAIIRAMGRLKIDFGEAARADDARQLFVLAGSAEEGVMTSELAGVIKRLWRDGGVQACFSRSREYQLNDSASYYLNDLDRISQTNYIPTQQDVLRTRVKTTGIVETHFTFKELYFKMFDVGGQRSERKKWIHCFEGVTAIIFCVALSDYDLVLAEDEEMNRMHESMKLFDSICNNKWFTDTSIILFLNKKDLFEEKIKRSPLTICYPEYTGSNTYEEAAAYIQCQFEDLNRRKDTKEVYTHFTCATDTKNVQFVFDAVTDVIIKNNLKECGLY
# experiment: inhibitors of GIV peptide binding to Galpha-i3, primary screen, biochemical, fluorescence polarization, FITC-GIV GBA peptide, rat Galphai3 (AID 1224905);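 further: lower values mean more displacement of the GIV peptide from Galpha-i3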
# experimental-context: 90 min, hits give low values, scaled: aluminum fluoride 0%, vehicle 100%
In all, about 210,000 compounds went through this assay and about 880 (0.42%) were called active. The entries come from a sample that favours actives as a whole.
measured-property: percent of control (FP) (%)

molecule="CCC(=O)N1CCc2cc(N3CC(C(=O)N4CCN(C(C)C)CC4)CC3=O)ccc21 (stereo not given)" unit_abbreviation=% recorded_value=72.7
molecule=CC(=O)Oc1ccccc1C(=O)N1CCN(c2ccccc2F)CC1 unit_abbreviation=% recorded_value=101
molecule="CCC(NC(=O)C1CC(=O)N(c2ccc3c(c2)CCN3C(C)=O)C1)c1cccs1 (stereo not given)" unit_abbreviation=% recorded_value=102
molecule=CCN1CCN(Cc2c(O)ccc3c(=O)c(Oc4ccccc4Br)c(C(F)(F)F)oc23)CC1 unit_abbreviation=% recorded_value=96.7
molecule="O=C(CCN1CCOCC1)Nc1cc(C(=O)Nc2ccc(F)c(F)c2)ccc1N1CC2CC(C1)c1cccc(=O)n1C2 (stereo not given)" unit_abbreviation=% recorded_value=115

* * *

# experimental-system: Guanine nucleotide-binding protein G(i) subunit alpha-3 (Rattus norvegicus)
# experiment: inhibitors of GIV peptide binding to Galpha-i3, primary screen, biochemical, fluorescence polarization, FITC-GIV GBA peptide, rat Galphai3 (AID 1224905);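 further: lower values mean more displacement of the GIV peptide from Galpha-i3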
# experimental-context: 90 min, hits give low values, scaled: aluminum fluoride 0%, vehicle 100%
The whole screen tested about 210,000 compounds, of which about 880 (0.42%) were called active. The entries come from a sample that favours actives as a whole.
measured-property: percent of control (FP) (%)

molecule=CCS(=O)(=O)N1CCC2(CC1)Nc1ccc(Cl)cc1-n1cccc12 experimental_system="Guanine nucleotide-binding protein G(i) subunit alpha-3 (Rattus norvegicus)" recorded_value=105
molecule=COc1cccc(C2=N/C(=C\c3ccccc3OC)C(=O)N2c2cccc(F)c2)c1 experimental_system="Guanine nucleotide-binding protein G(i) subunit alpha-3 (Rattus norvegicus)" recorded_value=62.3
molecule=O=C(NCc1ccco1)c1cc2nc(-c3ccc(Cl)c(Cl)c3)cc(C(F)(F)F)n2n1 experimental_system="Guanine nucleotide-binding protein G(i) subunit alpha-3 (Rattus norvegicus)" recorded_value=101
molecule=Cc1ccc2nc(/C(C#N)=C/c3ccc(-c4ccc(C(=O)OC(C)C)cc4)o3)[nH]c2c1 experimental_system="Guanine nucleotide-binding protein G(i) subunit alpha-3 (Rattus norvegicus)" recorded_value=-57.6
molecule=CCc1cc2c(NC3CCCCC3)ncnc2s1 experimental_system="Guanine nucleotide-binding protein G(i) subunit alpha-3 (Rattus norvegicus)" recorded_value=117
molecule="CC(=O)N1CCc2cc(N3CC(C(=O)N4CCC5(CC4)OCCO5)CC3=O)ccc21 (configuration not stated)" experimental_system="Guanine nucleotide-binding protein G(i) subunit alpha-3 (Rattus norvegicus)" recorded_value=107
molecule=COc1cc(C=C2C(=O)NC(=O)NC2=O)cc(Cl)c1OCCOc1ccc(C)cc1 experimental_system="Guanine nucleotide-binding protein G(i) subunit alpha-3 (Rattus norvegicus)" recorded_value=103
molecule=Cc1cc(N2CCOCC2)ccc1C=C1C(=O)c2ccccc2C1=O experimental_system="Guanine nucleotide-binding protein G(i) subunit alpha-3 (Rattus norvegicus)" recorded_value=123
molecule=CCCCN(CCCNC(=O)Nc1cn(CC(C)C)c(=O)c2ccccc12)Cc1ccccc1 experimental_system="Guanine nucleotide-binding protein G(i) subunit alpha-3 (Rattus norvegicus)" recorded_value=98.7
molecule=Cc1cc2c3c(ccc(N)c3n1)C(=O)c1ccccc1-2 experimental_system="Guanine nucleotide-binding protein G(i) subunit alpha-3 (Rattus norvegicus)" recorded_value=-32.2
molecule=O=C(CSc1nnc2ccc(C(=O)NCc3ccccc3)cn12)Nc1ccccc1Br experimental_system="Guanine nucleotide-binding protein G(i) subunit alpha-3 (Rattus norvegicus)" recorded_value=95.4
molecule="CCOc1ccc(/C(O)=C2/C(=O)C(=O)N(CCN3CCOCC3)C23C(=O)N(C)c2ccccc23)cc1 (configuration not stated)" experimental_system="Guanine nucleotide-binding protein G(i) subunit alpha-3 (Rattus norvegicus)" recorded_value=107
molecule="CCc1cc(C2CCCN2C(=O)NCC2CCCO2)on1 (configuration not stated)" experimental_system="Guanine nucleotide-binding protein G(i) subunit alpha-3 (Rattus norvegicus)" recorded_value=106
molecule=COc1ccc(N2CCN(C(C)=C3C(=O)c4ccccc4C3=O)CC2)cc1 experimental_system="Guanine nucleotide-binding protein G(i) subunit alpha-3 (Rattus norvegicus)" recorded_value=97.8
molecule=O=C(CN1CCN(C(=O)c2cccc(Cl)c2)CC1)Nc1nnc(-c2ccccc2)s1 experimental_system="Guanine nucleotide-binding protein G(i) subunit alpha-3 (Rattus norvegicus)" recorded_value=98.2
molecule=Cc1cc(C)c2[nH]c(=O)c(NC(N)=S)nc2c1 experimental_system="Guanine nucleotide-binding protein G(i) subunit alpha-3 (Rattus norvegicus)" recorded_value=109
molecule=CCOc1cc(/C=C2/C(=O)N(c3nn[nH]n3)N=C2C)cc(Cl)c1OCC experimental_system="Guanine nucleotide-binding protein G(i) subunit alpha-3 (Rattus norvegicus)" recorded_value=74.3
molecule=COc1cc(/C=C2/N=C(c3ccccc3)N(C)C2=O)cc(OC)c1OC experimental_system="Guanine nucleotide-binding protein G(i) subunit alpha-3 (Rattus norvegicus)" recorded_value=106
molecule=COC1=C(N2CCOCC2)C(=O)c2ccccc2C1=O experimental_system="Guanine nucleotide-binding protein G(i) subunit alpha-3 (Rattus norvegicus)" recorded_value=81.8
molecule=Cc1ccc2c(c1)N(C(=O)CSc1nc3ccccc3o1)C(C)(C)c1ssc(=S)c1-2 experimental_system="Guanine nucleotide-binding protein G(i) subunit alpha-3 (Rattus norvegicus)" recorded_value=101
molecule=CCn1c(C)nc2c1C(=O)c1ccccc1C2=O experimental_system="Guanine nucleotide-binding protein G(i) subunit alpha-3 (Rattus norvegicus)" recorded_value=102
molecule=CCOc1ccc(NC(=O)Nc2cccc(OCc3cc(=O)n4ccccc4n3)c2)cc1 experimental_system="Guanine nucleotide-binding protein G(i) subunit alpha-3 (Rattus norvegicus)" recorded_value=100
